Target: Cytochrome P450 2D6 (Homo sapiens) (UniProt P10635)
Sequence (P10635 whole entry, looked up): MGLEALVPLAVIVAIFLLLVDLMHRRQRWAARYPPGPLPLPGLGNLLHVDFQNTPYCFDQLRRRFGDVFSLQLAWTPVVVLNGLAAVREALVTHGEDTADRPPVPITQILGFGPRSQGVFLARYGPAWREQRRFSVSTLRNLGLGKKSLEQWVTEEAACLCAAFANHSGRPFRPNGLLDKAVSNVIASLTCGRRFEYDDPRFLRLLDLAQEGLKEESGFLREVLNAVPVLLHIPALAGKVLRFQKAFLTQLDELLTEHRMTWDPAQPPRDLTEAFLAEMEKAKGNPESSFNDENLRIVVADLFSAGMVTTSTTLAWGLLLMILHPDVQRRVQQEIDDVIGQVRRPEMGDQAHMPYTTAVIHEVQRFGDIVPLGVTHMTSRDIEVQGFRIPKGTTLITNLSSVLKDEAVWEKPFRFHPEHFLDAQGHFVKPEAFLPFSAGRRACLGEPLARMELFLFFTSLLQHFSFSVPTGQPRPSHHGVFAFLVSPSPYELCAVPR
Assay: Cytochrome P450 family 2 subfamily D member 6 (CYP2D6) small molecule antagonists: luciferase biochemical (cell-free) qHTS assay (AID 1645840); also: nearly all actives have a fitted effect of over 55% in size; also: potency is read from the fitted curve at half-maximal effect
Settings: P450-Glo CYP2D6 enzyme, luciferin luminescence, 1 h; series mostly up to 57.4 µM
Description: National Center for Advancing Translational Sciences [NCATS] Assay Overview: Cytochrome P450 (CYP) enzymes are membrane-bound hemeproteins that play a key role in metabolism of drugs and xenobiotics. Assaying the effect of chemicals on CYP isozymes is useful to minimize the adverse drug reactions and toxicities in drug development process. […] The luciferin products formed are detected with a luciferin detection reagent, and the amount of light produced is proportional to CYP activity. […]
Results filed as inconclusive are left out. Active and inactive are the calls of the source. Calls follow the shape of the dose curve; as a rule, active = well fitted inhibition curve with a large enough effect in the repeat runs; inconclusive = weak or mixed curves; inactive = flat fitted curve, though single readings scatter.
Assay readout: Potency

Here's what some known entries look like.
CNc1nc(Nc2cn(C(C)(C)C#N)nc2C)ncc1C(F)(F)F | inactive
c1ccc2c(Nc3nnc(-c4ccncc4)s3)cccc2c1 | inactive
NC(N)=NCCC[C@H](NC(=O)c1sccc1NS(=O)(=O)c1cccc2nsnc12)C(=O)O | inactive
CCOC(=O)CSc1nc2c(sc3ccccc32)c(=O)n1CCCN1CCCC1 | 0.849 µM (active)
Cc1oc(S(=O)(=O)N2CCCCC2)cc1NC(=O)Nc1ccccc1 | 12 µM (active)
N[C@@H](CCNCc1ccc(Cl)cc1)C(=O)N1CCCCC1 | 10.7 µM (active)
O=C(O)c1cc(C(F)(F)F)ccc1N1CC[C@H](OCc2ccccn2)C1 | inactive
Cn1cc(CCn2cnc(-c3cnn(C)c3)c2-c2ccc(C#N)cc2)cn1 | inactive

Query: // returns reported Potency for input `Cc1occc1C(=O)n1ccnc1`
Result: inactive

Query: // returns reported Potency for input `Cc1ccc2nc(NC(=O)CSc3nc4c(c(=O)n3-c3ccc(F)cc3)SCC4)sc2c1`
Result: inactive

Query: // returns reported Potency for input `COc1cc2nc(=NC(=O)c3cccnc3)n3c(c2cc1OC)NCC3`
Result: inactive
